Tested on: Saccharomyces cerevisiae
assay-protocol: protein stability index of tFT-peptide fusion (C-terminal peptide) (PSI (0-1 scale)); higher = more stable (slower turnover)
measurement-parameters: genetic background: das1 deletion; temperature: 30 C
// values below are reported protein stability index
recorded-metric: protein stability index

- GLTLIGRQSDSI [RAD7 C-terminal 12 aa]: 0.703
- DSNTGGIIASIF [YKL104W-A C-terminal 12 aa]: 0.702
- IAKEHDKIPKFL [INA22 C-terminal 12 aa]: 0.695
- YFKETLYKLANE [HIS5 C-terminal 12 aa]: 0.687
- AAMLTSENAREI [RRP45 C-terminal 12 aa]: 0.707
- ALDAVDDAIILD [GET1 C-terminal 12 aa]: 0.716
